// provenance: PubChem BioAssay AID1136

# tgt: Alkaline phosphatase, tissue-nonspecific isozyme (Homo sapiens)
# runDescription: TNAP activators at high phosphate acceptor level, primary screen, biochemical, luminescence, uHTS (AID 1136)
# experimentalConditions: purified TNAP, CDP-star luminescence, 1 M DEA, 30 min; at 20 µM; hits give high values; 0 = EDTA background, 1 = DMSO-only activity
Out of some 200,000 compounds screened, fewer than 10 were called active. Only a sample is shown.

compound	tgt	activation factor
Cc1cccc(N2CCN(c3ccc(C(N)=O)cc3[N+](=O)[O-])CC2)c1C	Alkaline phosphatase, tissue-nonspecific isozyme (Homo sapiens)	1
O=C(CCNC(=O)c1ccc([N+](=O)[O-])cc1)Nc1ccccc1N1CCOCC1	Alkaline phosphatase, tissue-nonspecific isozyme (Homo sapiens)	1
O=C(O/N=C(/c1ccccc1)c1ccncc1)c1ccccc1[N+](=O)[O-]	Alkaline phosphatase, tissue-nonspecific isozyme (Homo sapiens)	1.1
CC1(c2cccc([N+](=O)[O-])c2)CC(C)(C)N(C(=O)c2ccccc2)c2ccccc21 (configuration not stated)	Alkaline phosphatase, tissue-nonspecific isozyme (Homo sapiens)	1
CCN(c1ccc(NC(=O)COC(=O)CCc2nc3ccccc3n2-c2ccccc2)cc1)C(C)C	Alkaline phosphatase, tissue-nonspecific isozyme (Homo sapiens)	1
O=[N+]([O-])c1cc(S(=O)(=O)CCCN2CCOCC2)ccc1F	Alkaline phosphatase, tissue-nonspecific isozyme (Homo sapiens)	1
CN(C)/C=C(/C(=O)c1ccccc1)S(=O)(=O)c1ccc(Cl)cc1	Alkaline phosphatase, tissue-nonspecific isozyme (Homo sapiens)	1
CCN(CC)C(=O)C(=O)c1cn(CC(=O)NCc2ccc3c(c2)OCO3)c2ccccc12	Alkaline phosphatase, tissue-nonspecific isozyme (Homo sapiens)	1
O=C(NCc1cccnc1)c1cccc(-c2cc3ccccc3oc2=O)c1	Alkaline phosphatase, tissue-nonspecific isozyme (Homo sapiens)	1.1
O=C(CC(=O)N/N=C\c1cccc(Cl)c1Cl)NCc1ccccc1	Alkaline phosphatase, tissue-nonspecific isozyme (Homo sapiens)	1
CC(=O)N1C(C)c2ccccc2C(C)(C)CC12CCCCC2 (configuration not stated)	Alkaline phosphatase, tissue-nonspecific isozyme (Homo sapiens)	1
COc1ccc(N2CCN(C(=O)CNS(=O)(=O)c3ccc(C)c(C)c3)CC2)cc1	Alkaline phosphatase, tissue-nonspecific isozyme (Homo sapiens)	1.1
CC(=O)c1ccc(NC(=O)c2ccc3c(Cl)c4c(nc3c2)CCCC4)cc1	Alkaline phosphatase, tissue-nonspecific isozyme (Homo sapiens)	1
CCc1ccc(CN(C)Cc2nc(Cc3ccccc3)no2)nc1	Alkaline phosphatase, tissue-nonspecific isozyme (Homo sapiens)	1.1
CCOC(=O)c1sc(/N=C/C2=C(O)CC(C)(C)CC2=O)c(C(=O)OCC)c1C	Alkaline phosphatase, tissue-nonspecific isozyme (Homo sapiens)	1
CCC1S/C(=N/N=C/c2ccco2)NC1=O (configuration not stated)	Alkaline phosphatase, tissue-nonspecific isozyme (Homo sapiens)	1
O=C1CCC(CCC(=O)N2CCCC(C(=O)c3ccc(Cl)cc3)C2)=NN1 (configuration not stated)	Alkaline phosphatase, tissue-nonspecific isozyme (Homo sapiens)	1.1
O=C(CSCC(=O)Nc1cccc([N+](=O)[O-])c1)Nc1ccccc1	Alkaline phosphatase, tissue-nonspecific isozyme (Homo sapiens)	1
C=CCN1C(=O)C(Cc2ccc(OCC)cc2)SC1=Nc1ccc(C(=O)O)cc1 (configuration not stated)	Alkaline phosphatase, tissue-nonspecific isozyme (Homo sapiens)	1
CC(Oc1cccc(NC(=O)c2cccs2)c1)C(=O)c1ccccc1 (configuration not stated)	Alkaline phosphatase, tissue-nonspecific isozyme (Homo sapiens)	1
O=S(=O)(/N=C(/Nc1ccccc1)c1ccccc1)c1cccs1	Alkaline phosphatase, tissue-nonspecific isozyme (Homo sapiens)	1
O=C(COC(=O)CCCSc1nc2ccccc2[nH]1)Nc1ccc(Oc2ccccc2)cc1	Alkaline phosphatase, tissue-nonspecific isozyme (Homo sapiens)	1.1
